biological target: Human immunodeficiency virus type 1 protease (Human immunodeficiency virus 1)
Numbered stars: 1 amine (or outer) side, 2 acyl side, 3 side chain; on linkers, the order of the positions; unused ones are H or OH. Square brackets hold non-standard residues; d marks the D form. Peptide text beside a SMILES is read from it. * marks the point of attachment. Hexanoyl(5S-NH,4S-OH,6-Ph) = O=C(CC[C@H](O)[C@H](Cc1ccccc1)N[*:1])[*:2]; X2 = C[C@H](C[C@H](O)[C@H](Cc1ccccc1)N[*:1])C(=O)[*:2]; Cbz = O=C(OCc1ccccc1)*
Quick list: Ki per entry.

COMPOUND	UNIT TEXT	Ki
COC(=O)[C@@H](NC(=O)[C@@H](NC(=O)CC[C@H](O)[C@H](Cc1ccccc1)NC(=O)[C@H](C)NC(=O)[C@H](C)N)C(C)C)C(C)C (H-AA[Hexanoyl(5S-NH,4S-OH,6-Ph)]VV-OMe)	nM	4
COC(=O)[C@@H](NC(=O)[C@@H](NC(=O)[C@H](C)C[C@H](O)[C@H](Cc1ccccc1)NC(=O)[C@H](C)NC(=O)[C@H](C)NC(=O)OCc1ccccc1)C(C)C)C(C)C (Cbz-AA[X2]VV-OMe)	nM	0.6
CC(C)C(NC(=O)[C@H](Cc1ccccc1)C[C@H](O)C(Cc1ccccc1)NC(=O)OC(C)(C)C)C(N)=O (stereo partly specified)	nM	1.4
CCC[C@H](C[C@H](O)C(Cc1ccccc1)NC(=O)OC(C)(C)C)C(=O)NC(C(N)=O)C(C)C (stereo partly specified)	nM	50
CCC[C@H](C[C@H](O)C(Cc1ccccc1)NC(=O)C(C)NC(=O)OCc1ccccc1)C(=O)NC(C(N)=O)C(C)C (stereo partly specified)	nM	20
COC(=O)C(NC(=O)C(NC(=O)CC[C@H](O)C(Cc1ccccc1)NC(=O)C(C)NC(=O)OCc1ccccc1)C(C)C)C(C)C (stereo partly specified)	nM	118

----------
target: Human immunodeficiency virus type 1 protease (Human immunodeficiency virus 1, UniProt Q72874); assay: Binding affinity towards human immunodeficiency virus type 1 protease determined using continuum electrostatics solvation
Numbered stars: 1 amine (or outer) side, 2 acyl side, 3 side chain; on linkers, the order of the positions; unused ones are H or OH. Square brackets hold non-standard residues; d marks the D form. Peptide text beside a SMILES is read from it. * marks the point of attachment. Hexanoyl(5S-NH,4S-OH,6-Ph) = O=C(CC[C@H](O)[C@H](Cc1ccccc1)N[*:1])[*:2]; X3 = O=C([C@H](Cc1ccccc1)C[C@H](O)[C@H](Cc1ccccc1)N[*:1])[*:2]; X4 = CC(C)C[C@H](C[C@H](O)[C@H](Cc1ccccc1)N[*:1])C(=O)[*:2]; Cbz = O=C(OCc1ccccc1)*
Quick list: Ki per entry.

COMPOUND	Ki [nM]
COC(=O)[C@@H](NC(=O)[C@@H](NC(=O)[C@H](Cc1ccccc1)C[C@H](O)[C@H](Cc1ccccc1)NC(=O)[C@H](C)NC(=O)[C@H](C)NC(=O)OCc1ccccc1)C(C)C)C(C)C (Cbz-AA[X3]VV-OMe)	0.4
COC(=O)[C@@H](NC(=O)[C@@H](NC(=O)[C@H](CC(C)C)C[C@H](O)[C@H](Cc1ccccc1)NC(=O)[C@H](C)NC(=O)[C@H](C)NC(=O)OCc1ccccc1)C(C)C)C(C)C (Cbz-AA[X4]VV-OMe)	0.8
CC(NC(=O)OCc1ccccc1)C(=O)NC(Cc1ccccc1)[C@@H](O)CCC(=O)NC(C(N)=O)C(C)C (stereo not given in full)	2500
COC(=O)[C@@H](NC(=O)[C@@H](NC(=O)CC[C@H](O)[C@H](Cc1ccccc1)NC(=O)[C@H](C)NC(=O)[C@H](C)NC(=O)OCc1ccccc1)C(C)C)C(C)C (Cbz-AA[Hexanoyl(5S-NH,4S-OH,6-Ph)]VV-OMe)	44
CCC[C@H](C[C@H](O)C(Cc1ccccc1)NC(=O)C(C)NC(=O)OCc1ccccc1)C(=O)NC(C(=O)NC(C(=O)OC)C(C)C)C(C)C (stereo not given in full)	0.6

----------
Numbered stars: 1 amine (or outer) side, 2 acyl side, 3 side chain; on linkers, the order of the positions; unused ones are H or OH. Square brackets hold non-standard residues; d marks the D form. Peptide text beside a SMILES is read from it. * marks the point of attachment. X4 = CC(C)C[C@H](C[C@H](O)[C@H](Cc1ccccc1)N[*:1])C(=O)[*:2]; X1 = CCC[C@H](C[C@H](O)[C@H](Cc1ccccc1)N[*:1])C(=O)[*:2]; X2 = C[C@H](C[C@H](O)[C@H](Cc1ccccc1)N[*:1])C(=O)[*:2]; Cbz = O=C(OCc1ccccc1)*
These records show log10 of Ki for Human immunodeficiency virus type 1 protease (Human immunodeficiency virus 1).
MEASUREMENT LABEL: log10 of Ki (log10 of the value in nM)

MOLECULE	TESTED TARGET	log10 of Ki
COC(=O)C(NC(=O)C(NC(=O)[C@H](CC(C)C)C[C@H](O)C(Cc1ccccc1)NC(=O)C(C)NC(=O)OCc1ccccc1)C(C)C)C(C)C (stereo partly drawn)	Human immunodeficiency virus type 1 protease (Human immunodeficiency virus 1)	-0.05
COC(=O)[C@@H](NC(=O)[C@@H](NC(=O)[C@H](C)C[C@H](O)[C@H](Cc1ccccc1)NC(=O)[C@H](C)NC(=O)[C@H](C)N)C(C)C)C(C)C (H-AA[X2]VV-OMe)	Human immunodeficiency virus type 1 protease (Human immunodeficiency virus 1)	0.48
CC(C)C[C@H](C[C@H](O)C(Cc1ccccc1)NC(=O)C(C)NC(=O)OCc1ccccc1)C(=O)NC(C(N)=O)C(C)C (stereo partly drawn)	Human immunodeficiency virus type 1 protease (Human immunodeficiency virus 1)	0.59
CC(NC(=O)OCc1ccccc1)C(=O)NC(Cc1ccccc1)[C@@H](O)C[C@@H](Cc1ccccc1)C(=O)NC(C(N)=O)C(C)C (stereo partly drawn)	Human immunodeficiency virus type 1 protease (Human immunodeficiency virus 1)	-0.22
CCC[C@H](C[C@H](O)[C@H](Cc1ccccc1)NC(=O)[C@H](C)NC(=O)[C@H](C)NC(=O)OCc1ccccc1)C(=O)N[C@H](C(=O)N[C@H](C(=O)OC)C(C)C)C(C)C (Cbz-AA[X1]VV-OMe)	Human immunodeficiency virus type 1 protease (Human immunodeficiency virus 1)	-0.40
CC(C)C[C@H](C[C@H](O)C(Cc1ccccc1)NC(=O)OC(C)(C)C)C(=O)NC(C(N)=O)C(C)C (stereo partly drawn)	Human immunodeficiency virus type 1 protease (Human immunodeficiency virus 1)	1.36
CC(C)C(NC(=O)[C@H](C)C[C@H](O)C(Cc1ccccc1)NC(=O)OC(C)(C)C)C(N)=O (stereo partly drawn)	Human immunodeficiency virus type 1 protease (Human immunodeficiency virus 1)	2.41
CC(NC(=O)OCc1ccccc1)C(=O)NC(Cc1ccccc1)[C@@H](O)C[C@@H](C)C(=O)NC(C(N)=O)C(C)C (stereo partly drawn)	Human immunodeficiency virus type 1 protease (Human immunodeficiency virus 1)	1.70
CC(C)C(NC(=O)CC[C@H](O)C(Cc1ccccc1)NC(=O)OC(C)(C)C)C(N)=O (stereo partly drawn)	Human immunodeficiency virus type 1 protease (Human immunodeficiency virus 1)	3.81
COC(=O)[C@@H](NC(=O)[C@@H](NC(=O)[C@H](CC(C)C)C[C@H](O)[C@H](Cc1ccccc1)NC(=O)[C@H](C)NC(=O)[C@H](C)N)C(C)C)C(C)C (H-AA[X4]VV-OMe)	Human immunodeficiency virus type 1 protease (Human immunodeficiency virus 1)	-0.22
COC(=O)C(NC(=O)C(NC(=O)[C@H](Cc1ccccc1)C[C@H](O)C(Cc1ccccc1)NC(=O)C(C)NC(=O)OCc1ccccc1)C(C)C)C(C)C (stereo partly drawn)	Human immunodeficiency virus type 1 protease (Human immunodeficiency virus 1)	-0.22
CCC[C@H](C[C@H](O)[C@H](Cc1ccccc1)NC(=O)[C@H](C)NC(=O)[C@H](C)N)C(=O)N[C@H](C(=O)N[C@H](C(=O)OC)C(C)C)C(C)C (H-AA[X1]VV-OMe)	Human immunodeficiency virus type 1 protease (Human immunodeficiency virus 1)	0.08
COC(=O)C(NC(=O)C(NC(=O)[C@H](C)C[C@H](O)C(Cc1ccccc1)NC(=O)C(C)NC(=O)OCc1ccccc1)C(C)C)C(C)C (stereo partly drawn)	Human immunodeficiency virus type 1 protease (Human immunodeficiency virus 1)	0.20

----------
These records show pKi for Beta-secretase 1 (Homo sapiens).
pKi: −log10 of the molar value.

COMPOUND	TESTED TARGET	pKi
CC(C)C[C@H](NC(=O)[C@H](CS(C)(=O)=O)NC(=O)OC(C)(C)C)C(O)CC(C)C(=O)N[C@H](C(=O)NCc1ccccc1)C(C)C (stereo not given in full)	Beta-secretase 1 (Homo sapiens)	5.95
CSCC(NC(=O)[C@@H](NC(=O)OC(C)(C)C)C(C)C)C(=O)N[C@@H](CC(C)C)C(O)CC(C)C(=O)N[C@H](C(=O)NCc1ccccc1)C(C)C (stereo not given in full)	Beta-secretase 1 (Homo sapiens)	7.30
CC(C)C[C@H](NC(=O)C(NC(=O)[C@@H](NC(=O)OC(C)(C)C)C(C)C)C(N)=O)C(O)CC(C)C(=O)N[C@H](C(=O)NCc1ccccc1)C(C)C (stereo not given in full)	Beta-secretase 1 (Homo sapiens)	8.23
CC(C)C[C@H](NC(=O)[C@@H](NC(=O)OC(C)(C)C)C(N)=O)C(O)CC(C)C(=O)N[C@@H](C)C(=O)NCc1ccccc1 (stereo not given in full)	Beta-secretase 1 (Homo sapiens)	4.65
CC(C)C[C@H](NC(=O)[C@@H](NC(=O)OC(C)(C)C)C(N)=O)C(O)CC(C)C(=O)N[C@H](C(=O)NCc1ccccc1)C(C)C (stereo not given in full)	Beta-secretase 1 (Homo sapiens)	5.50
